System: MS2 coat protein
Experiment: apparent KD of MS2 coat protein; higher = weaker reporter binding
Conditions: Eterna round: R101; input ligand: FMN 200 uM
# apparent KD of MS2 coat protein values compiled below

{"residue.string": "AAGUACAAGCAGAAGGCACAUGAGGAUCACCCAUGUCGGGCGUCCUGUAAGUGAGGAUAUGCUAAGUGACGGCCGCCUUGGCGG [Adienare] (puzzle (switch architecture): Inverted Small Loop Exclusion NG 1)", "apparent KD of MS2 coat protein, nM": 22.6}
{"residue.string": "UCAGUAGAGUCAGGAUAUACAAAAGGCGAUCCAUACAUGAGGAUCACCCAUGUAGAAGGGACUCUACUGUAAGUCGGAAACGAC [#StaticStemDeletion - Eli x2 4.003] (puzzle (switch architecture): Small Loop Exclusion NG 1)", "apparent KD of MS2 coat protein, nM": 11.6}
{"residue.string": "CCGACGUUUCAGAAGGCACUCGCAUAAUGCGAGUGAGGAUAUGAGGAUCACCCAUAUCAUCGUCGGAGUCACCGAAACGGUGAC [#SharedSequence - IEx NG 3-2] (puzzle (switch architecture): Inverted Exclusion NG 1)", "apparent KD of MS2 coat protein, nM": 12.4}
{"residue.string": "GAAAUAUAGUCAGGAUAUCAGGACAUGAGGAUCACCCAUGUACUGAAUGGGCUGGUGAAAAGAGAUGAGAAGGGACACACUAGA [EternaBot874] (puzzle (switch architecture): Exclusion NG 2)", "apparent KD of MS2 coat protein, nM": 5.79}

###

Test system: MS2 coat protein
Assay: apparent KD of MS2 coat protein; higher = weaker reporter binding
Conditions: Eterna round: R107; input ligand: tryptophan 2.4 mM
In this section, each of the sequences is paired with its reported apparent KD of MS2 coat protein.

{"residue.string": "GGCACAUGUGGAAGGAGCGUCGUACGAGCUACAUGAGGAUCACCCAUGUCGGUUAGUGUCCGACAGGUAGGUCGCCACAUUUAAC [Isiser]", "units.text": "nM", "apparent KD of MS2 coat protein": 195}
{"residue.string": "ACGACGCAUAGUGAUACCAGUAGAACAUGAGGAUCACCCAUGUCUGUGACGCACAAAUUCUGCCCUUGGCAGCACUAUGCGUCAG [SSTheo B #6]", "units.text": "nM", "apparent KD of MS2 coat protein": 12.1}
{"residue.string": "CUGCCAUGCAGAGAUACCAGUGCGCUCAGCACAUGAGGAUCACCCAUGUCGGCUGCCGAUCACCCUUGGCAGCUCUGCAUGGCAG [?@#$_]", "units.text": "nM", "apparent KD of MS2 coat protein": 11.3}
{"residue.string": "AGACAUGAGGAUCACCCAUGUAGUACGGAUACCAGAUCCAGAUGUAUCCCUUGGCAGCUGUGGUACAGCGUUGCAUCGCUCCUAG [Exclusion - Theophylline A (Freestyle 19)]", "units.text": "nM", "apparent KD of MS2 coat protein": 14.4}
{"residue.string": "AGACAUGAGGAUCACCCAUGUAGUAUGGAUACCAGAUGUAGAUUAGUCCCUUGGCAGCUGUGCUGAAGUGAUGCAUUGCUCCUAG [#15 Exclusion-TheophyllineA]", "units.text": "nM", "apparent KD of MS2 coat protein": 23.6}
{"residue.string": "UCUCAAGGCCGCUCGGUGCUCCCUGGUGAUACCAGCCAUAUAUCCGGCCCUUGGCAGCACAUGAGGAUCACCCAUGUAGCAGGCG [Sorimaat]", "units.text": "nM", "apparent KD of MS2 coat protein": 28.1}
{"residue.string": "UUCGUUUGCGGAAGGAGCGACGGACAUCGGUGACCCACGCACAUGAGGAUCACCCAUGUACGUCAGGUAGGUCGCCGCUAAGAGU [XArg-B4]", "units.text": "nM", "apparent KD of MS2 coat protein": 12.4}
{"residue.string": "ACUAGUUGUGCAGAUACCAGACAUGAGGAUCACCCAUGUUUGGGAUGUUCGCAUCUUCCUGUCCCUUGGCAGCUGUACAUCUAGA [Omei Theo B Exc v4]", "units.text": "nM", "apparent KD of MS2 coat protein": 86.2}
{"residue.string": "UGGUGUAGGGUAAAUAGGCUGAGUACAGAAGGAGCGCGAAUAAACGCAGGUAGGUCGCUGGACACAUGAGGAUCACCCAUGUUGA [Same State Arginine A GF 29]", "units.text": "nM", "apparent KD of MS2 coat protein": 21.2}
{"residue.string": "CUUGUUUGUGGAAGGAGCGCGAUUACAUAACAUGAGGAUCACCCAUGUAAGAAAUUAUUCAUGCAGGUAGGUCGCCAUUGGUGGG [Same State Arginine B GF8]", "units.text": "nM", "apparent KD of MS2 coat protein": 30.6}
{"residue.string": "GGGAAUGAACGUGAUACCAGAGAUCCGGUCUCCGUCAAUAUACAUGAGGAUCACCCAUGUCUCCCUUGGCAGCACCGUCAUCGGG [Exclusion Theophylline B GF 28]", "units.text": "nM", "apparent KD of MS2 coat protein": 14.5}
{"residue.string": "UGGUACAUGAGGAUCACCCAUGUUCCAGAUACCAGUGUCCCGGUGCACCCUUGGCAGCUGGUGGUACAUGAGGAUCACCCAUGUG [Exclusion Theophylline A GF13]", "units.text": "nM", "apparent KD of MS2 coat protein": 37.3}
